Biological target: High affinity choline transporter 1 (Homo sapiens) (UniProt Q9GZV3)
Sequence (Q9GZV3 whole entry, looked up): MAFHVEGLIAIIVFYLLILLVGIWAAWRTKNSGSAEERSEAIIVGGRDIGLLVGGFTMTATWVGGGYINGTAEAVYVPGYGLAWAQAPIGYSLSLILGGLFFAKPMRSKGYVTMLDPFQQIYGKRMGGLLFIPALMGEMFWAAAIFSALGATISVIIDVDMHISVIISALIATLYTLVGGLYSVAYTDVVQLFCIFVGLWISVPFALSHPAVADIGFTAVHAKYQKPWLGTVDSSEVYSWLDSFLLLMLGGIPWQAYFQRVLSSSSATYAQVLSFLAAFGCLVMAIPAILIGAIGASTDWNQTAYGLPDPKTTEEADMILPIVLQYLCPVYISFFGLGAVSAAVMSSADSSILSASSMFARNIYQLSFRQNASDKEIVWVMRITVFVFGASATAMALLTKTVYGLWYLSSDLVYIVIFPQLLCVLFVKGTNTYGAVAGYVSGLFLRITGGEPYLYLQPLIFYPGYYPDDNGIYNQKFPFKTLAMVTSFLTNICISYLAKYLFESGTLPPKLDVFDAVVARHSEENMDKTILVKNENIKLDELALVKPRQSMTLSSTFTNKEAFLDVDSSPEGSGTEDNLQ
Assay: CHT positive allosteric modulators, primary screen, cell-based, membrane potential dye, choline EC20 (AID 488977)
Conditions: CHT-expressing cells, at 10 µM, LV-AA mutant CHT in HEK293 cells
Screen size: about 310,000 compounds; about 1,500 (0.48%) were called active.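 Rule for the calls: active = initial fluorescence not abnormally high and integrated response B-score, plate-corrected, over 3 SD above library mean; inactive = the rest.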 For the sample, actives were picked, then their nearest neighbours and some compounds at random.
Please state which outcome applies, choosing from label 1 (active), label 0 (inactive)

Solved entries:
[
  {
    "compound": "COc1ccc(C(=O)CN(C(=O)c2ccc(Cl)cc2)N2C(=O)c3ccccc3C2=O)cc1",
    "study-system": "High affinity choline transporter 1 (Homo sapiens) (UniProt Q9GZV3)",
    "cat": "label 0"
  },
  {
    "compound": "CN1CCN(C2Cc3ccc(Cl)cc3Sc3ccc(F)cc32)CC1 (stereo not drawn)",
    "study-system": "High affinity choline transporter 1 (Homo sapiens) (UniProt Q9GZV3)",
    "cat": "label 0"
  },
  {
    "compound": "CCOc1cc(C(=O)Nc2ccc(S(=O)(=O)Nc3cnc4ccccc4n3)cc2)cc(OCC)c1OCC",
    "study-system": "High affinity choline transporter 1 (Homo sapiens) (UniProt Q9GZV3)",
    "cat": "label 0"
  }
]

What outcome does the record of this test show for COc1cccc(CC2(CO)CCCN(Cc3ccc(OC(F)F)cc3)C2)c1 (stereo not drawn) ? label 0

What outcome does the record of this test show for CCCCn1c(N)c(N(CC(C)C)C(=O)c2ccc(Br)o2)c(=O)[nH]c1=O ? label 0

What outcome does the record of this test show for CN(C(=O)c1cc2c(=O)n3ccccc3nc2s1)C1CCCCC1 ? label 0

What outcome does the record of this test show for CCC1Nc2ncnc(N3CCN(c4ccccc4)CC3)c2N(Cc2ccc(Cl)cc2)C1=O (stereo not drawn) ? label 0

What outcome does the record of this test show for COc1ccccc1C(=O)NC(CCSC)C(=O)N1CCN(C/C=C/c2ccccc2)CC1 (stereo not drawn) ? label 0

* * *

Molecular target: High affinity choline transporter 1 (Homo sapiens) (UniProt Q9GZV3)
Experiment: CHT positive allosteric modulators, primary screen, cell-based, membrane potential dye, choline EC20 (AID 488977)
Conditions: CHT-expressing cells, at 10 µM, LV-AA mutant CHT in HEK293 cells; stronger effect = higher value
In all, about 310,000 compounds went through this assay and about 1,500 (0.48%) were called active. The list comes from a sample in which actives are over-represented; it also holds close analogues and randomly drawn compounds.
measurement-name: B-score

Known results for compounds:
[
  {
    "compound": "O=C(NCc1ccccn1)c1cnc2sccn2c1=O",
    "result": "inactive"
  },
  {
    "compound": "CC(OC(=O)C1CC(=O)N(Cc2ccccc2)C1)C(=O)Nc1ccccc1[N+](=O)[O-] (configuration not stated)",
    "result": "inactive"
  },
  {
    "compound": "CCN1C(=S)N[C@@H](CCc2ccccc2)[C@H](C(=O)OC)[C@H]1C",
    "result": "inactive"
  },
  {
    "compound": "O=C(COC(=O)C1CCN(S(=O)(=O)c2ccc3c(c2)OCCO3)CC1)Nc1ccccc1OC(F)F",
    "result": "6.95 (active)"
  },
  {
    "compound": "Cc1cc(/C=N/NC(=O)CC2(C)OCCO2)c(C)n1-c1ccc(Cl)c(Cl)c1",
    "result": "inactive"
  }
]

Memo: O=S(=O)(NCCCc1ccccc1)c1ccc(Br)cc1 , reported B-score: inactive

Memo: CCCCCC(=O)N1CCN(S(=O)(=O)c2ccc3c(c2)OCCCO3)CC1 , reported B-score: inactive

Memo: COC(=O)c1c(C)[nH]c(C)c1-c1ccc([N+](=O)[O-])cc1 , reported B-score: inactive

Memo: CC1(C)CC[C@]2(C(=O)O)CC[C@]3(C)C(=CCC4[C@@]5(C)CC[C@H](O)C(C)(C)C5[C@H](O)C[C@]43C)[C@@H]2C1 (some centres not stated) , reported B-score: inactive
